These entries and their values trace back to PubChem BioAssay (NCI).

- System: MOLT-4 leukemia
- Experiment notes: NCI-60 one-dose screen, 48 h (100 = growth as untreated, 0 = no growth, -100 = all killed)
- Condition context: 10 µM unless noted
About 83,000 compounds went through this panel and 20% of them were active in at least one assay; those are over-represented in the sample as a whole.
Note to self: growth under 80% means condition met, ties and anything higher get condition not met.

Prompt: Record `COc1ccc(C(=O)c2c(N)nc3n2CCCC3)cc1OC` : is its growth strictly below 80%?
Completion: condition not met

Prompt: Record Nc1nc2c(c3ncccc13)C(c1ccccc1)Cc1ncccc1-2 (stereo not given) : is its growth strictly below 80%?
Completion: condition met

Prompt: Record `C/C(=N\NC(=S)N1CCCCC1)c1ccccn1` : is its growth strictly below 80%?
Completion: condition met

Prompt: Record CCCOC(=O)C1c2cc3c(cc2CC(C)C1C(=O)OCCC)OCO3 (stereo not given) : is its growth strictly below 80%?
Completion: condition not met

Prompt: Record CNCc1ccccc1CN(CC(=O)Nc1ccc2c(c1)CC1(C2)C(=O)Nc2ncccc21)C(=O)C(C)(C)C (stereo not given) : is its growth strictly below 80%?
Completion: condition not met

Prompt: Record `CC1=C(O)C(=O)C(c2c(C)cc(C)c(Br)c2C)=C(O)C1=O` : is its growth strictly below 80%?
Completion: condition met

Prompt: Record C/C=C(\C)C(C(=O)NC1CCCCC1)N(C(=O)C1CCc2cc(F)ccc2O1)c1ccc([N+](=O)[O-])cc1 (stereo not given) : is its growth strictly below 80%?
Completion: condition met

Prompt: Record `CCCc1cc2c(cc1CN(Cc1cc3c(cc1CCC)OCO3)C(=N)OCC)OCO2` : is its growth strictly below 80%?
Completion: condition not met

Prompt: Record `COc1ccc(/C(=C\c2cc(OC)c(OC)c(OC)c2)C(=O)N2CCN(c3ccccc3)CC2)cc1O` : is its growth strictly below 80%?
Completion: condition not met

Prompt: Record `N[C@@H](CO)C(=O)O` : is its growth strictly below 80%?
Completion: condition not met

----------
- Tested on: PC-3 prostate
- Experiment notes: NCI-60 one-dose screen, 48 h (100 = growth as untreated, 0 = no growth, -100 = all killed)
- Condition context: 10 µM unless noted
- Procedure: Growth inhibition of the PC-3 human tumor cell line is measured as a screen for anti-cancer activity. Cells are grown in 96 well plates and exposed to the test compound for 48 hours. Compounds are tested at a single concentration, which is 10^-5 M for most compounds. The reported endpoint is percent growth (GI% or GIPRCNT), where numbers from 0 - 100% represent growth inhibition, and numbers from -100% - 0 represent cell death. For example, a value of 40 represents 60% growth inhibition. […]
The panel holds about 83,000 compounds, 20% with a hit somewhere; the sample as a whole holds those more often.
Endpoint: growth (%)
Please respond with the number in % and leave the unit unwritten.

Note to self: growth of `Cc1ccc(NC(=O)Cn2nncc2CN2C(=O)CSC2=O)cc1C` with PC-3 prostate was 99.3

Note to self: growth of `Cc1cc(C)cc(NC(=O)Cn2nncc2CN2C(=O)CSC2=O)c1` with PC-3 prostate was 100

Note to self: growth of `O=C(/C=C/c1cc([N+](=O)[O-])ccc1Cl)c1ccccc1` with PC-3 prostate was 85.4

Note to self: growth of `Clc1ccc2c(c1)-n1cccc1C(c1ccc3ccccc3c1)=NC2` with PC-3 prostate was 79.8

Note to self: growth of `CC(=O)N[C@@H](CCC(N)=O)C(=O)O` with PC-3 prostate was 74.5
